assayRemarks: chemical genetic growth profiling, strain panel (AID 1159580);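 note: tested at 20 µM; growth read once vehicle control cultures reached saturation at 30 °C; 1 = growth at the plate median or of vehicle wells; lower values mean less growth of the strain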
testParameters: S. cerevisiae deletion strains, growth OD, locus YLR330W, strain CHS5
About 2,000 (36%) of roughly 5,500 compounds were called active. Inconclusive results (about 18%) are left out. Cut-off read from the data, not from the text of the source: active = normalized growth mostly below about 0.91 (no sharp cut-off); inconclusive = no clear call, values can overlap the other calls; inactive = mostly above about 0.92. Some of the results follow.
Log the outcome using a class from Yes for active, No for inactive

Hello, I am checking results. What call was entered for Cc1[nH]c2ccccc2c1CN(C)C ?
No

---

assayRemarks: chemical genetic growth profiling, strain panel (AID 1159580)
testParameters: S. cerevisiae deletion strains, growth OD, locus YNL207W, strain RIO2, active compounds read low
Screen size: about 5,500 compounds; about 2,000 (36%) were called active. Not shown: some 18% with an inconclusive outcome. The list shows a part of the results.
attributeMeasured: normalized growth
Numbers only.

O=C(ON=C1CCCCC1)c1ccc([N+](=O)[O-])cc1	0.944
Cc1cccc(NC(=S)N/N=C\c2ccc(F)cc2)c1	0.946
Cc1c(C(=O)Sc2ccc(F)cc2F)sc2nc(C(F)(F)F)nn12	0.214

Input O=[N+]([O-])c1ccc(ON=C2CCCCC2)c([N+](=O)[O-])c1 , output reported normalized growth.
0.969

---

assayRemarks: chemical genetic growth profiling, strain panel (AID 1159580)
testParameters: S. cerevisiae deletion strains, growth OD, locus YNL322C, strain KRE1 (second series), active compounds read low
Hit rate of the full screen: of about 5,500 compounds, about 2,000 (36%) were called active. Another 18% or so got no clear call; they are omitted. Some of the results follow.
attributeMeasured: normalized growth
Answers are plain numbers.

The cases that follow already have their normalized growth on record.
CO/N=C1/CN(c2nc3c(cc2F)c(=O)c(C(=O)O)cn3C2CC2)CC1CN (stereo unspecified)	1.03
COc1ccc(C(c2ccc(OC)cc2)C(Cl)(Cl)Cl)cc1	0.985
CCn1cc(C(=O)O)c(=O)c2cc(F)c(N3CCNCC3)nc21	0.976
CC1(C)S[C@@H]2[C@H](NC(=O)[C@H](N)c3ccccc3)C(=O)N2[C@H]1C(=O)O	0.97
Oc1cc(O)c2c(c1)O[C@H](c1ccc(O)c(O)c1)[C@@H](O)C2	1.01
O=C(O)CCCc1ccccc1	0.954
COc1c(N2CCNC(C)C2)c(F)cc2c(=O)c(C(=O)O)cn(C3CC3)c12 (stereo unspecified)	0.967
CCN1CCCC(OC(=O)C(c2ccccc2)c2ccccc2)C1 (stereo unspecified)	0.992

Hey, quick one: what's normalized growth for each of these?
1. C#CCCCCCCCCCCCc1ccco1
2. NCCS(=O)(=O)O
3. NS(=O)(=O)c1cc2c(cc1Cl)NC=NS2(=O)=O

[0.983, 0.971, 1.01]

Hey, quick one: what's normalized growth for each of these?
1. O=C(/C=C/c1ccc(O)c(O)c1)OC(Cc1ccc(O)c(O)c1)C(=O)O (stereo unspecified)
2. O=C(c1ccc(OCCN2CCCCC2)cc1)c1c(-c2ccc(O)cc2)sc2cc(O)ccc12
3. COc1ccc(C(CN(C)C)C2(O)CCCCC2)cc1 (stereo unspecified)
4. C=CCc1ccc(OC)cc1
5. CCn1cc(C(=O)O)c(=O)c2cc(F)c(N3CCNC(C)C3)c(F)c21 (stereo unspecified)
6. CCC(C)C(=O)O[C@@H]1C[C@@]2(C)[C@H](c3ccoc3)OC(=O)CC23OC2(C)O[C@]14[C@]1(C)[C@@H](CC(=O)OC)C5(C)CC1(O)[C@](O)(C5OC(=O)C1(C)OC1C)[C@@H](OC(C)=O)[C@]34O2 (stereo partly specified)
7. C[n+]1c2cc(N)ccc2cc2ccc(N)cc21
8. COC(=O)c1cc(=O)c(O)c2c(O)c(O)ccc2c1

1. 1.03
2. 1.02
3. 0.965
4. 1
5. 0.964
6. 0.984
7. 0.218
8. 0.967

Hey, quick one: what's normalized growth for each of these?
1. Cn1c(=O)c2c(ncn2CC(O)CO)n(C)c1=O (stereo unspecified)
2. Cc1ncc(CNC(=O)N(CCCl)N=O)c(N)n1

0.983
0.937

---

assayRemarks: chemical genetic growth profiling, strain panel (AID 1159580);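 note: tested at 20 µM; growth read once vehicle control cultures reached saturation at 30 °C; 1 = growth at the plate median or of vehicle wells; lower values mean less growth of the strain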
testParameters: S. cerevisiae deletion strains, growth OD, locus YGL078C, strain dbp3
The campaign covered roughly 5,500 compounds. About 2,000 (36%) were called active. Not shown: some 18% with an inconclusive outcome. Rule as the data show it: active = normalized growth mostly below about 0.91 (no sharp cut-off); inconclusive = no clear call, values can overlap the other calls; inactive = mostly above about 0.92. Some of the results follow.
Log the outcome using a class from active, inactive

The examples below pair each entry with its known result.
CN(C)CCN(Cc1cccs1)c1ccccn1	inactive
COc1cc([C@@H]2c3cc4c(cc3C(OC3O[C@@H]5COC(C)O[C@H]5[C@H](O)[C@H]3O)C3COC(=O)[C@@H]32)OCO4)cc(OC)c1O (stereo partly drawn)	inactive

Hello, I am checking results. What call was entered for COc1c(N2CCNC(C)C2)c(F)cc2c(=O)c(C(=O)O)cn(C3CC3)c12 (stereo not drawn) ?
inactive

Hello, I am checking results. What call was entered for Oc1cc(O)c2c(c1)O[C@H](c1ccc(O)c(O)c1)[C@@H](O)C2 ?
inactive

Hello, I am checking results. What call was entered for COc1cc2nc(N(C)CCCNC(=O)C3CCCO3)nc(N)c2cc1OC (stereo not drawn) ?
inactive

Hello, I am checking results. What call was entered for CCn1cc(C(=O)O)c(=O)c2cc(F)c(N3CCNCC3)nc21 ?
inactive

Hello, I am checking results. What call was entered for COC(=O)c1cc(=O)c(O)c2c(O)c(O)ccc2c1 ?
active

Hello, I am checking results. What call was entered for Cn1c(=O)c2c(ncn2CC(O)CO)n(C)c1=O (stereo not drawn) ?
inactive

Hello, I am checking results. What call was entered for CC1COc2c(N3CCN(C)CC3)c(F)cc3c(=O)c(C(=O)O)cn1c23 (stereo not drawn) ?
inactive

Hello, I am checking results. What call was entered for CC1(C)S[C@@H]2[C@H](NC(=O)[C@H](N)c3ccccc3)C(=O)N2[C@H]1C(=O)O ?
inactive

Hello, I am checking results. What call was entered for CCN1CCCC(OC(=O)C(c2ccccc2)c2ccccc2)C1 (stereo not drawn) ?
inactive

---

So I've got a bunch of compounds here, and I need their normalized growth values.
assayRemarks: chemical genetic growth profiling, strain panel (AID 1159580);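 note: tested at 20 µM; growth read once vehicle control cultures reached saturation at 30 °C; 1 = growth at the plate median or of vehicle wells; lower values mean less growth of the strain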
testParameters: S. cerevisiae deletion strains, growth OD, locus YLR262C, strain YPT6 (second series), active compounds read low
Hit rate of the full screen: of about 5,500 compounds, about 2,000 (36%) were called active. About 18% were inconclusive and are not listed. The list shows a part of the results.
Numbers only.

The cases that follow already have their normalized growth on record.
COc1c(N2CCNC(C)C2)c(F)cc2c(=O)c(C(=O)O)cn(C3CC3)c12 (stereo not given)	0.915
NS(=O)(=O)c1cc2c(cc1Cl)NC=NS2(=O)=O	1
COC(=O)c1cc(=O)c(O)c2c(O)c(O)ccc2c1	0.847
CCN(CC)C(=O)N1CCN(C)CC1	0.967
CC[C@@H](C(=O)C(C)[C@@H](O)[C@H](C)CCc1ccc(C)c(O)c1C(=O)O)C1OC(CC)(C2CC[C@](O)(CC)[C@H](C)O2)C[C@@H]1C (stereo not given in full)	1.08
Cc1[nH]c2ccccc2c1CN(C)C	1.01
CN1C2CCC1CC(OC(c1ccccc1)c1ccccc1N)C2 (stereo not given)	1.03
CC1CCc2cc(F)cc3c(=O)c(C(=O)O)cn1c23 (stereo not given)	0.952

Hey, quick one: what's normalized growth for each of these?
1. NCCS(=O)(=O)O
2. C/C=C(\C)C(=O)O[C@H]1C[C@@H](OC(C)=O)[C@@]2(C(=O)OC)CO[C@@H]3C2[C@]12CO[C@](O)(C(=O)OC)[C@H]2[C@](C)(C12O[C@@]1(C)[C@H]1C[C@@H]2OC2OC=C[C@@]21O)[C@@H]3O (stereo not given in full)
3. Oc1cc(O)c2c(c1)O[C@H](c1ccc(O)c(O)c1)[C@@H](O)C2
4. N[C@@H](Cc1ccc(N(CCCl)CCCl)cc1)C(=O)O
5. COc1cc(CNC(=O)CCCC/C=C/C(C)C)ccc1O
6. Oc1cc(O)c2c(c1)O[C@H](c1ccc(O)c(O)c1)[C@H](O)C2

1. 0.99
2. 0.968
3. 1.02
4. 0.979
5. 0.966
6. 0.997

---

assayRemarks: chemical genetic growth profiling, strain panel (AID 1159580);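 note: tested at 20 µM; growth read once vehicle control cultures reached saturation at 30 °C; 1 = growth at the plate median or of vehicle wells; lower values mean less growth of the strain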
testParameters: S. cerevisiae deletion strains, growth OD, locus YJL134W, strain LCB3
The campaign covered roughly 5,500 compounds. About 2,000 (36%) were called active. Another 18% or so got no clear call; they are omitted. Cut-off read from the data, not from the text of the source: active = normalized growth mostly below about 0.91 (no sharp cut-off); inconclusive = no clear call, values can overlap the other calls; inactive = mostly above about 0.92. This is one part of the list.
Log the outcome using a class from 1 (yes) for active, 0 (no) for inactive

COc1cc2c(cc1OC)C(=O)c1ccc(OC)c(OC)c1OCC(=O)C2	0 (no)

Hello, I am checking results. What call was entered for COc1cc(OC)c2c(c1)O[C@H](c1cc(OC)c(OC)c(OC)c1)[C@H](OC(=O)c1cc(OC)c(OC)c(OC)c1)C2 ?
0 (no)

Hello, I am checking results. What call was entered for CC(=O)Oc1cc(OC(C)=O)c2c(c1)O[C@H](c1ccc(OC(C)=O)c(OC(C)=O)c1)[C@H](OC(C)=O)C2 ?
0 (no)
